test system: human umbilical vein endothelial cells (HUVEC); assay: HUVEC proliferation assay; type: cell-based; details: Homo sapiens, HUVEC, 50 nM; crude combinatorial urea library; read-out: Inhibition of HUVEC Proliferation % inhibition @ 50 nM
Item-by-item account of inhibition at 0.05 µM
Give just the number in %; leave the unit off.

>  <Query Smiles>
COc1cccc(C(=O)Nc2cccc(-c3csc(-c4sc(NC(=O)N[C@H](CO)Cc5c[nH]cn5)nc4N)n3)c2)c1

>  <Unit Text>
%

>  <Recorded Result>
19

$$$$
>  <Query Smiles>
COc1cccc(C(=O)Nc2cccc(-c3csc(-c4sc(NC(=O)NCc5ccc(N(C)C)cc5)nc4N)n3)c2)c1

>  <Unit Text>
%

>  <Recorded Result>
67

$$$$

Read the next record carefully.
Return inhibition at 0.05 µM for the following molecule: `COc1cccc(C(=O)Nc2cccc(-c3csc(-c4sc(NC(=O)NCCC(C)C)nc4N)n3)c2)c1`
18

---

target: CDK4/Cyclin D3 complex (Homo sapiens, UniProt P11802); construct: made in house; host or cells: insect cells co-infected with baculovirus vectors; assay: CDK4/Cyclin D assay; format: biochemical; conditions: 1.0 μM; combinatorial library compounds
Sequence (P11802 whole entry): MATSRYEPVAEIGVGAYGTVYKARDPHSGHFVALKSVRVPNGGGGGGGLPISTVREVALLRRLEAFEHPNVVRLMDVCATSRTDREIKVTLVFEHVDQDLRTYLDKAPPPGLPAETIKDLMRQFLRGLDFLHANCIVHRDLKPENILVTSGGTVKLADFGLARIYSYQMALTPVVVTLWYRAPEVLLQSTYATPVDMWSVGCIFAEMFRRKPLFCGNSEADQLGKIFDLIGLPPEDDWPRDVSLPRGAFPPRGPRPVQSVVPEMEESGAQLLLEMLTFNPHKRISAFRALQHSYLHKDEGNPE
Sequence (P30281 whole entry partner): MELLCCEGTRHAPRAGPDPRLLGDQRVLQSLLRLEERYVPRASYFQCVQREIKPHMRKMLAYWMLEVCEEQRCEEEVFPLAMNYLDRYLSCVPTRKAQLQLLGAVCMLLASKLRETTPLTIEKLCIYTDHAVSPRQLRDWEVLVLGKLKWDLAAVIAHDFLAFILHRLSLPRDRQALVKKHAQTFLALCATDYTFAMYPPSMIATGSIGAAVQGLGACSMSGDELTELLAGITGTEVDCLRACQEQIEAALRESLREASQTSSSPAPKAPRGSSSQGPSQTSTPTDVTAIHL
Outcome label depends on inhibition at 1 µM relative to 30%: at/above gives 1, below gives 0.

The examples below pair each entry with its known result.
>  <Compound>
CC(C)c1ccc(Nc2nc(N)c(-c3nc(-c4ccc[nH]4)cs3)s2)cc1

>  <Assigned Category>
1

$$$$
>  <Compound>
Nc1nc(Nc2ccc(S(N)(=O)=O)cc2)sc1-c1nc(-c2ccc([N+](=O)[O-])cc2)cs1

>  <Assigned Category>
0

$$$$
>  <Compound>
COc1ccc2nc(-c3ccccc3)c(-c3csc(-c4sc(Nc5ccc(N(C)C)cc5)nc4N)n3)cc2c1

>  <Assigned Category>
1

$$$$
>  <Compound>
Cc1c(-c2csc(-c3sc(Nc4ccc(C(C)C)cc4)nc3N)n2)sc2ccccc12

>  <Assigned Category>
0

$$$$
>  <Compound>
CN(C)c1ccc(Nc2nc(N)c(-c3nc(-c4ccc5ccccc5c4)cs3)s2)cc1

>  <Assigned Category>
1

$$$$
>  <Compound>
COc1cc(OC)c(-c2csc(-c3sc(Nc4ccc(S(N)(=O)=O)cc4)nc3N)n2)c(O)c1Cl

>  <Assigned Category>
1

$$$$
>  <Compound>
Nc1nc(Nc2ccc(S(N)(=O)=O)cc2)sc1-c1nc(-c2ccc(Cl)c(Cl)c2)cs1

>  <Assigned Category>
0

$$$$
>  <Compound>
CC(C)c1ccc(Nc2nc(N)c(-c3nc(-c4ccc5oc6ccccc6c5c4)cs3)s2)cc1

>  <Assigned Category>
1

$$$$

Hi, just wondering whether Cc1c(-c2csc(-c3sc(Nc4ccc(N(C)C)cc4)nc3N)n2)sc2ccc(Cl)cc12 [drawing 550] shows inhibition at 1 µM of 30% or higher.
1

Hi, just wondering whether COc1ccccc1-c1csc(-c2sc(Nc3ccc(S(N)(=O)=O)cc3)nc2N)n1 [drawing 394] shows inhibition at 1 µM of 30% or higher.
0

Hi, just wondering whether `CC(=O)Oc1ccccc1-c1csc(-c2sc(Nc3ccc(N(C)C)cc3)nc2N)n1` shows inhibition at 1 µM of 30% or higher.
1

Hi, just wondering whether `CN(C)c1ccc(Nc2nc(N)c(-c3nc(-c4ccc5c(c4)C(C)(C)CCC5(C)C)cs3)s2)cc1` shows inhibition at 1 µM of 30% or higher.
1

Hi, just wondering whether `Cc1onc(-c2ccccc2)c1-c1csc(-c2sc(Nc3ccc(N(C)C)cc3)nc2N)n1` shows inhibition at 1 µM of 30% or higher.
1
